- assay.target: mouse kappa opioid receptor (mKOR) (Mus musculus, UniProt P33534)
- Construct: Stimulation of Endogenous Mouse Kappa-Opioid Receptor in R1.G1 Cells
- Sequence (P33534 whole entry): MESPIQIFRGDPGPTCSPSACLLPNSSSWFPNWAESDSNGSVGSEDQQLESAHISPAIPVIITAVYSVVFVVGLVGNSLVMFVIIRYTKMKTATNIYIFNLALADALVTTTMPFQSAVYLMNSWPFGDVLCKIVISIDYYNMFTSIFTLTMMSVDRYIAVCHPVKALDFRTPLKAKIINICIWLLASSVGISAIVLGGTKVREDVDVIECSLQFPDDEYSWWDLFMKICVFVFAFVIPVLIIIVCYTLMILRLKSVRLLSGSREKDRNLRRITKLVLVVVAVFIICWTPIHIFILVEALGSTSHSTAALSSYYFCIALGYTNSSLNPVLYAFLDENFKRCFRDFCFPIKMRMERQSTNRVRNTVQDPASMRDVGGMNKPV
- protocol.notes: cell-based
Square brackets hold non-standard residues; d marks the D form. Peptide text beside a SMILES is read from it. * marks the point of attachment. Piperidinyl(4-(1-Pro-OH)) = O=C(O)[C@@H]1CCCN1C1CCN(*)CC1; Piperidin1yl(4-NH2,4-COOH) = NC1(C(=O)O)CCN(*)CC1; Homopiperazine(4-amidino) = N=C(N)N1CCCN(*)CC1; d(hArg) = N=C(N)NCCCC[C@@H](N)C(=O)O; dAgp = N=C(N)NC[C@@H](N)C(=O)O; dNle = CCCC[C@@H](N)C(=O)O; dOrn = NCCC[C@@H](N)C(=O)O; Inp = O=C(O)C1CCNCC1
Provide the recorded EC50 for the entries that follow.
Provide only the numeric value, understood in nM.

# EC50 (compound: CC(C)C[C@@H](NC(=O)[C@@H](Cc1ccccc1)NC(=O)[C@H](N)Cc1ccccc1)C(=O)N[C@H](CCCNC(C)C)C(=O)N1CCCN(C(=N)N)CC1 ) is 0.081

# EC50 (compound: CNCCC[C@@H](NC(=O)[C@@H](CC(C)C)NC(=O)[C@@H](Cc1ccccc1)NC(=O)[C@H](N)Cc1ccccc1)C(=O)N1CCCNCC1 ) is 0.045

# EC50 (compound: CC(C)C[C@@H](NC(=O)[C@@H](Cc1ccccc1)NC(=O)[C@H](N)Cc1ccccc1)C(=O)N[C@H](CCCCN)C(=O)NCC1CCOCC1 ) is 0.633

# EC50 (compound: CC(C)C[C@@H](NC(=O)[C@@H](Cc1ccccc1)NC(=O)[C@H](N)Cc1ccccc1)C(=O)N[C@H](CCCCN)C(=O)N1CCC2(CCNC2=O)CC1 ) is 0.0314

# EC50 (compound: CC(C)C[C@@H](NC(=O)[C@@H](Cc1ccccc1)NC(=O)[C@H](N)Cc1ccccc1)C(=O)N[C@H](CCCCNC(=N)N)C(=O)N1CCC(N)(C(=O)O)CC1 [Compound (8)] (H-[dF][dF][dL][d(hArg)]-{Piperidin1yl(4-NH2,4-COOH)}) ) is 0.043

# EC50 (compound: CC(C)C[C@@H](NC(=O)[C@@H](Cc1ccccc1)NC(=O)[C@H](N)Cc1ccccc1)C(=O)N[C@H](CCCN)C(=O)N1CCC(CC(N)C(=O)O)CC1 (stereo partly shown) ) is 0.028

# EC50 (compound: CC(C)C[C@@H](NC(=O)[C@@H](Cc1ccccc1)NC(=O)[C@H](N)Cc1ccccc1)C(=O)N[C@H](CCCNC(C)C)C(=O)N1CCC(N)(C(=O)O)CC1 ) is 0.193

# EC50 (compound: CCCC[C@@H](NC(=O)[C@@H](Cc1ccccc1)NC(=O)[C@H](N)Cc1ccccc1)C(=O)N[C@H](CNC(=N)N)C(=O)N1CCCN(C(=N)N)CC1 [Compound (19)] (H-[dF][dF][dNle][dAgp]-{Homopiperazine(4-amidino)}) ) is 2.15

# EC50 (compound: CC(C)C[C@@H](NC(=O)[C@@H](Cc1ccccc1)NC(=O)[C@H](N)Cc1ccccc1)C(=O)N[C@H](CNC(=N)N)C(=O)N1CCC(N2CCC[C@H]2C(=O)O)CC1 [Compound (14)] (H-[dF][dF][dL][dAgp]-{Piperidinyl(4-(1-Pro-OH))}) ) is 0.349

# EC50 (compound: CC(C)C[C@@H](NC(=O)[C@@H](Cc1ccccc1)NC(=O)[C@H](N)Cc1ccccc1)C(=O)N[C@H](CCCN)C(=O)N1CCC(C(=O)O)CC1 [Compound (46)] (H-[dF][dF][dL][dOrn][Inp]-OH) ) is 0.088

###

- protocol.notes: Inhibition of locomotion in mice (locomotion reduction assay, sedation)
- recorded.conditions: mouse, in vivo, sc, subcutaneous, sedative effect
attribute.measured: ED50 (mg/kg)
Provide only the numeric value, understood in mg/kg.

# ED50 (molecule: CC(C)C[C@@H](NC(=O)[C@@H](Cc1ccccc1)NC(=O)[C@H](N)Cc1ccccc1)C(=O)N[C@H](CCCN)C(=O)N1CCCN(C2=NCCN2)CC1 [Compound (54)] ) is 3.17

###

- assay.target: mouse kappa opioid receptor (mKOR) (Mus musculus, UniProt P33534)
- Construct: Stimulation of Endogenous Mouse Kappa-Opioid Receptor in R1.G1 Cells
- protocol.notes: cell-based
Provide the recorded pEC50 for the entries that follow.
In textbook form, pEC50 equals minus log to base ten of the concentration in mol/L.

# pEC50 (compound: CC(C)C[C@@H](NC(=O)[C@@H](Cc1ccccc1)NC(=O)[C@H](N)Cc1ccccc1)C(=O)N[C@H](CCCN)C(=O)N[C@@H]1CN[C@H](C(=O)O)C1 ) is 8.52

# pEC50 (compound: CC(C)C[C@@H](NC(=O)[C@@H](Cc1ccccc1)NC(=O)[C@H](N)Cc1ccccc1)C(=O)N[C@H](CCCN)C(=O)NCCCC[C@H](NC(=O)[C@H](N)CCCN)C(=O)O ) is 10.10

# pEC50 (compound: CNCCCC[C@@H](NC(=O)[C@@H](CC(C)C)NC(=O)[C@@H](Cc1ccccc1)NC(=O)[C@H](N)Cc1ccccc1)C(=O)N1CCC(N2CCC[C@H]2C(=O)O)CC1 ) is 10.44

# pEC50 (compound: CC(C)C[C@@H](NC(=O)[C@@H](Cc1ccccc1)NC(=O)[C@H](N)Cc1ccccc1)C(=O)N[C@H](CCCCN)C(=O)N1CCC2(CC1)NC(=O)NC2=O ) is 11.25

# pEC50 (compound: CC(C)C[C@@H](NC(=O)[C@@H](Cc1ccccc1)NC(=O)[C@H](N)Cc1ccccc1)C(=O)N[C@H](CCCCN)C(=O)N1CCN(C(=O)c2ccccc2)CC1 ) is 9.46

###

- assay.target: UniProt:P41145
- Sequence (P41145 whole entry): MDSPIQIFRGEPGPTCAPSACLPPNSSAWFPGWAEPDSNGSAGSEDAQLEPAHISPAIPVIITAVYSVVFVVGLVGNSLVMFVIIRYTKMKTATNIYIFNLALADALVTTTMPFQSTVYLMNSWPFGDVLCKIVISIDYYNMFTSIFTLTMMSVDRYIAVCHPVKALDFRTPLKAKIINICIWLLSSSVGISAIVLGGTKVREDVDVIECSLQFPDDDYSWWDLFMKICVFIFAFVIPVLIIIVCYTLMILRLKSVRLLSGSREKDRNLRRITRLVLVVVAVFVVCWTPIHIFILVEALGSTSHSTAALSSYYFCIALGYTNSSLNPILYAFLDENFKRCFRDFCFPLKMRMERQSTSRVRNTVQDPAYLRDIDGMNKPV
- protocol.notes: cell-based
Square brackets hold non-standard residues; d marks the D form. Peptide text beside a SMILES is read from it. * marks the point of attachment. Piperidin1yl(4-NH2,4-COOH) = NC1(C(=O)O)CCN(*)CC1; Homopiperazine(4-amidino) = N=C(N)N1CCCN(*)CC1; dAgb = N=C(N)NCC[C@@H](N)C(=O)O; dDab = NCC[C@@H](N)C(=O)O
attribute.measured: pEC50
In textbook form, pEC50 equals minus log to base ten of the concentration in mol/L.

# pEC50 (compound: CC(C)C[C@@H](NC(=O)[C@@H](Cc1ccccc1)NC(=O)[C@H](N)Cc1ccccc1)C(=O)N[C@H](CCN)C(=O)N1CCCN(C(=N)N)CC1 [Compound (22)] (H-[dF][dF][dL][dDab]-{Homopiperazine(4-amidino)}) ) is 9.74

# pEC50 (compound: CC(C)C[C@@H](NC(=O)[C@@H](Cc1ccccc1)NC(=O)[C@H](N)Cc1ccccc1)C(=O)N[C@H](CCCN)C(=O)NCCCC[C@H](NC(=O)[C@H](N)CCCN)C(=O)O [Compound (79)] ) is 9.89

# pEC50 (compound: CC(C)C[C@@H](NC(=O)[C@@H](Cc1ccccc1)NC(=O)[C@H](N)Cc1ccccc1)C(=O)N[C@H](CCNC(=N)N)C(=O)N1CCC(N)(C(=O)O)CC1 [Compound (11)] (H-[dF][dF][dL][dAgb]-{Piperidin1yl(4-NH2,4-COOH)}) ) is 9.82

# pEC50 (compound: CC(C)C[C@@H](NC(=O)[C@@H](Cc1ccccc1)NC(=O)[C@H](N)Cc1ccccc1)C(=O)N[C@H](CCCCN)C(=O)NCc1ccc2[nH]c(=O)[nH]c2c1 [Compound (74)] ) is 11.20

# pEC50 (compound: CC(C)C[C@@H](NC(=O)[C@@H](Cc1ccccc1)NC(=O)[C@H](N)Cc1ccccc1)C(=O)N[C@H](CCCCN)C(=O)N1CCN(c2cnccn2)CC1 [Compound (64)] ) is 10.53

###

- assay.target: mouse kappa opioid receptor (mKOR) (Mus musculus)
- Construct: Stimulation of Endogenous Mouse Kappa-Opioid Receptor in R1.G1 Cells
- protocol.notes: cell-based
Square brackets hold non-standard residues; d marks the D form. Side chains are listed from the residue outwards. Peptide text beside a SMILES is read from it. * marks the point of attachment. Homopiperazine(4-amidino) = N=C(N)N1CCCN(*)CC1; dNle = CCCC[C@@H](N)C(=O)O; dOrn = NCCC[C@@H](N)C(=O)O; dDab = NCC[C@@H](N)C(=O)O
attribute.measured: EC50 (pM)
Provide only the numeric value, understood in pM.

mouse kappa opioid receptor (mKOR) (Mus musculus) assay, molecule CC(C)C[C@@H](NC(=O)[C@@H](Cc1ccccc1)NC(=O)[C@H](N)Cc1ccccc1)C(=O)N[C@H](CCN)C(=O)N1CCCN(C(=N)N)CC1 [Compound (22)] (H-[dF][dF][dL][dDab]-{Homopiperazine(4-amidino)}) , recorded EC50 = 95

mouse kappa opioid receptor (mKOR) (Mus musculus) assay, molecule CC(C)C[C@@H](NC(=O)[C@@H](Cc1ccccc1)NC(=O)[C@H](N)Cc1ccccc1)C(=O)N[C@H](CCCN)C(=O)N1CCC(CC(=O)O)CC1 , recorded EC50 = 80

mouse kappa opioid receptor (mKOR) (Mus musculus) assay, molecule CC(C)C[C@@H](NC(=O)[C@@H](Cc1ccccc1)NC(=O)[C@H](N)Cc1ccccc1)C(=O)N[C@H](CCCCN)C(=O)NCc1ccc(C(F)(F)F)nc1 , recorded EC50 = 485

mouse kappa opioid receptor (mKOR) (Mus musculus) assay, molecule CC(C)C[C@@H](NC(=O)[C@@H](Cc1ccccc1)NC(=O)[C@H](N)Cc1ccccc1)C(=O)N[C@H](CCCCN)C(=O)N1CCN(S(=O)(=O)c2ccccc2)CC1 , recorded EC50 = 530

mouse kappa opioid receptor (mKOR) (Mus musculus) assay, molecule CC(C)C[C@@H](NC(=O)[C@@H](Cc1ccccc1)NC(=O)[C@H](N)Cc1ccccc1)C(=O)N[C@H](CCCN)C(=O)N1CCC(N2CCC[C@H]2C(N)=O)CC1 , recorded EC50 = 22

mouse kappa opioid receptor (mKOR) (Mus musculus) assay, molecule CC(C)C[C@@H](NC(=O)[C@@H](Cc1ccccc1)NC(=O)[C@H](N)Cc1ccccc1)C(=O)N[C@H](CCCCN)C(=O)N1CCC2(CCN(C)C2=O)CC1 , recorded EC50 = 19.4

mouse kappa opioid receptor (mKOR) (Mus musculus) assay, molecule CCCC[C@@H](NC(=O)[C@@H](Cc1ccccc1)NC(=O)[C@H](N)Cc1ccccc1)C(=O)N[C@H](CCCNC(=N)N)C(=O)N1CCC[C@@H]1C(=O)O [Compound (40), D-Phe-D-Phe-D-Nle-D-Arg-D-Pro-OH] (H-[dF][dF][dNle][dR][dP]-OH) , recorded EC50 = 9050

mouse kappa opioid receptor (mKOR) (Mus musculus) assay, molecule CC(C)C[C@@H](NC(=O)[C@@H](Cc1ccccc1)NC(=O)[C@H](N)Cc1ccccc1)C(=O)N[C@H](CCCN)C(=O)NCCCC[C@H](NC(=O)[C@@H](CCCN)NC(=O)[C@@H](CC(C)C)NC(=O)[C@@H](Cc1ccccc1)NC(=O)[C@H](N)Cc1ccccc1)C(N)=O [Compound (80)] (H-[dF][dF][dL][dOrn]K([dOrn-dL-dF-dF])-NH2) , recorded EC50 = 1300
